Record form. Attribute: growth. Fill in for each entry.
# Tested on: HT29 colon
# Assay Remarks: NCI-60 one-dose screen, 48 h (100 = growth as untreated, 0 = no growth, -100 = all killed)
# Assay Setup: 10 µM
# Protocol: Growth inhibition of the HT29 human tumor cell line is measured as a screen for anti-cancer activity. Cells are grown in 96 well plates and exposed to the test compound for 48 hours. Compounds are tested at a single concentration, which is 10^-5 M for most compounds. The reported endpoint is percent growth (GI% or GIPRCNT), where numbers from 0 - 100% represent growth inhibition, and numbers from -100% - 0 represent cell death. For example, a value of 40 represents 60% growth inhibition. […]
Compounds without any hit were thinned out: in the full panel of roughly 83,000, 20% have a hit.
One number for each entry, in %.

Examples with answers:
> print(dat)
                                   compound  measured.property  quantitative.readout
1  O=C(N/N=c1/ccoc2cccnc12)N1CCN(c2ncccn2)CC1             growth                  34.6
2           Nc1cc2c(cc1Cl)-c1ccc(Cl)cc1C2=O             growth                  97.5
3  CCOC(=S)Sc1ccc([N+](=O)[O-])cc1[N+](=O)[O-]             growth                 0.214
4  Cc1ccc(C2C=C(c3ccc(Cl)cc3)N=C3SC=CN32)c(Br)c1 (stereo not drawn)             growth                  67.9
5  COc1ccc(-c2n/c(=C\c3c(O)[nH]c4ccccc34)cc3c2=Nc2ccccc2-3)cc1             growth                 -37.1

Dear colleague, could you send me growth for each of the items below? Thanks.
1. Cc1ccc2nc3[nH]c(=O)[nH]c(=O)c3c(N)c2c1
2. N#CN1CC[C@H](C(=O)Nc2ncc(-c3ccncc3)s2)C1
3. CCCCCCCCCCCCCC[n+]1ccc(C)cc1
4. Cc1noc(C)c1-c1ccc2nc(NC(=O)[C@H]3CCN(C#N)C3)cn2c1
5. CCCCc1ccc(NC(=O)N(CCCl)N=O)cc1
6. CCc1nn2c(-c3ccccc3)c(-c3cc(OC)c(OC)c(OC)c3)nc2s1
7. O=NN(CC(=O)N/N=C/C=C\c1ccccc1)CC(=O)N/N=C/C=C/c1ccccc1

Result ::
1. 83.3
2. -39.9
3. -9.48
4. 78.1
5. 99.6
6. 74.5
7. 110

###

# Test system: RXF 393 renal
# Assay Remarks: NCI-60 one-dose screen, 48 h (100 = growth as untreated, 0 = no growth, -100 = all killed)
# Assay Setup: 10 µM
# Method: Cells are grown in 96 well plates and exposed to the test compound for 48 hours. Compounds are tested at a single concentration, which is 10^-5 M for most compounds. The reported endpoint is percent growth (GI% or GIPRCNT), where numbers from 0 - 100% represent growth inhibition, and numbers from -100% - 0 represent cell death. For example, a value of 40 represents 60% growth inhibition. A value of 0 means no net growth occurred over the course of the experiment. […]
The panel holds about 83,000 compounds, 20% with a hit somewhere; the sample as a whole holds those more often.
Measured Property: growth (%)
Answers are plain numbers, in %.

Examples with answers:
Molecule	Units Label	growth
NC(=O)C1CCCN(Cc2c[nH]c3ccccc23)C1 (stereo unspecified)	%	95.2
Cc1cccc2c1O/C(=C\c1ncc([N+](=O)[O-])n1C)C2=O	%	-63.7

Dear colleague, could you send me growth for each of the items below? Thanks.
1. C=C1C(=O)O[C@H]2[C@H]1CC/C(COC(=O)OCCCCCOC(=O)OC/C1=C/CC[C@@]3(C)O[C@H]3[C@H]3OC(=O)C(=C)[C@@H]3CC1)=C\CC[C@@]1(C)O[C@@H]21
2. COCc1cc2c(cc1Br)OCO2
3. CCCC(C)c1ccc(OCCCCCCN2CCNCC2)cc1 (stereo unspecified)
4. CCC(OC(=O)CC(C)C)c1ccccc1 (stereo unspecified)
5. COc1c(-c2c3sc(=O)[nH]c3nc3c2c(=O)[nH]n3C(C)C)cc2c(c1OC)OCO2
6. Cc1ccc2c3c(cccc13)-c1ccccc1C2=O
7. COc1ccc(-c2nc3sc(-c4ccccc4)c(-c4ccccc4)n3c2/C=C/c2ccc(F)cc2)cc1

Result ::
1: -69.8; 2: 107; 3: -13.3; 4: 98.2; 5: 110; 6: 105; 7: 89.4

Dear colleague, could you send me growth for each of the items below? Thanks.
1. Cc1cc2cc3c(=O)[nH]c(=O)cc-3n(CC(O)C(O)C(O)CO)c2cc1C (stereo unspecified)
2. CCCCCCOc1ccc(/C=C/C(=O)c2ccc(B(O)O)cc2)cc1

Result ::
115
74.2
